Where do the numbers come from? From patent US20250027068.

target_of_assay: pooled human IgG
Measured Enzyme Activity Endpoint Assay (purified): scIgG, listed per entry for reference.
quantity_name: Enzyme Activity Endpoint Assay (purified): scIgG (ng/µL)

| protein | readout_number |
| --- | --- |
| PRT-314 (protein) MQITSVWTKGVTPLTPEQFRENNEDVIHAPYLAHQGWYDITKAFDGKDNLLCGAATAGNMLHWWFDQNKTEIEAYLSKHPEKQKIIFGNQELFDLKAAIDTKDSQTNSQLFDYFRDKAFPNLSARQLGVMPDLVLDMFINGYYLNVGKTQSTDVNRPYQDKDKRGGIFDAVFTRGDQTTLLTARHDLKNKGLNDISTIIKQELTEGRALALSHTYANVSISHVINLWGADFNAEGELEAIYVTDSDANPSIGMKKYFVGRNAHGHVAISAKKIEGENIGAQVLGLFTLSSGKDQWQKLS | 174 |
| PRT-116 (protein) MRNATEAYNKATPTTITSVWTKGVTPPTPEQFRYNNEDVFHAPYKAHQGWYDITKTFNGKDNLLCGAATAGNMLHWWFDQNKTEIEAYLSKHPEKQKIIFNNQELFDLKAAIDTKDSQTNSQLFNYFRDKAFPNLSARQLGVMPDLVLDMFINGYYLNVFKTQSTDVNRPYQDKDKRGGIFDAVFTRGDQTKLLTARHDLKDKGLNEISDLIKQELTEGKALALSHTYANVRISHVINLWGADFNAEGNLEAIYVTDSDANASIGMKKYFVGVNSSGHVAISAKKIEGENIGAQVLGLFTLSSGKDIWQKLS | 0 |
| Ide85 (protein) MANQEIRYSEVTPYHVTSVWTKGVTPPAKFTQGEDVFHAPYVANQGWYDITKTFNGKDDLLCGAATAGNMLHWWFDQNKEKIEAYLKKHPDKQKIMFGDQELLDVRKVINTKGDQTNSELFNYFRDKAFPGLSARRIGVMPDLVLDMFINGYYLNVYKTQTTDVNRTYQEKDRRGGIFDAVFTRGDQSKLLTSRHDFKEKNLKEISDLIKKELTEGKALGLSHTYANVRINHVINLWGADFDSNGNLKAIYVTDSDSNASIGMKKYFVGVNSAGKVAISAKEIKEDNIGAQVLGLFTLSTGQDSWNQTN | 0 |
| PRT-691 (protein) MQITTVWTKGVTPPTPEQFRYNNEDVIHAPYLPNQGWYDITKTFNGKDNLLCGAATAGNMLHWWFDQNKTEIEAYLSKYPEKQKIIFNNQELFDLRAAINTKDSQTNSQLFNYFRDKAFPNLSARQLGVMPDLVLDMFINGYYLNVFKTQSTDVNRPYQDRDKRGGIFDAVFNRGDQTTLLTARHDLKNKTLNDISTLIKQELSSGKALALSHTYANVSISHVINLWGADFNAEGNLEAIYVTDSDANASIGMKKYYVGVNAHGKVAISAKKIEGENIGAQVLGLFTLSSGKDIWQKLSLEHHHHHH | 682 |
